# DC50 per record follows
biological target: p300 (Homo sapiens); construct: host or cells: A549 P300 HiBit cells; test: P300 degradation, HiBit technology in A549 P300 HiBit cells (2 h); type: cell-based; details: A549 P300 HiBit cells, 2 hrs post treatment

# Molecule, DC50
measured = [
    ("Cc1cc2c(N3CCCc4nc(-c5ccc(C(=O)NCC#Cc6cc7c(C89CC(C8)C(=O)NC9=O)cccc7o6)nc5)ncc43)cc(C3CCOCC3)cc2n(C)c1=O [Example B97]", "100 to 999 nM"),
    ("Cc1cc(-c2ncc(N(C)c3cc(C4CCOCC4)c4c(c3)n(C)c(=O)n4C)s2)cnc1C(=O)NCC#Cc1ccc2occ(C3CCC(=O)NC3=O)c2c1 (stereo not drawn) [Example A149]", "> 1000 nM"),
    ("Cc1cc(-c2cccc3cc(-c4ccc(C(=O)NCC#Cc5ccc6occ(C7CCC(=O)NC7=O)c6c5)nc4)ncc23)cc2c1n(C)c(=O)n2C (stereo not drawn) [Example A96]", "1 to 9.9 nM"),
]

Name the recorded DC50 for Cn1c(=O)n(C)c2ncc(N3CCOc4nc(-c5ccc(C(=O)NCC#Cc6cc7c(C8CCC(=O)NC8=O)cccc7o6)nc5)ncc43)cc21 (stereo not drawn) [Example A268] . 10 to 99 nM

Would you mind telling me what DC50 value was observed for CN1CCN(c2ccc3c(c2)n(C)c(=O)n3C)c2cnc(-c3ccc(C(=O)NCC#Cc4ccc5occ(C6CCC(=O)NC6=O)c5c4)nc3)nc21 (stereo not drawn) [Example A122] ? < 1 nM

Using the record for COc1cc(N2CCOc3cc(-c4ccc(C(=O)NCC#Cc5ccc6occ(C7CCC(=O)NC7=O)c6c5)nc4)c(F)cc32)c2cc(C)c(=O)n(C)c2c1 (stereo not drawn) [Example B147] , report its DC50. 1 to 9.9 nM

# get_value(readout='DC50', item= Cn1c(=O)n(C)c2c(C3CCOCC3)nc(-c3cccc4cc(-c5ccc(C(=O)NCC#Cc6ccc7occ(C8CCC(=O)NC8=O)c7c6)nc5)ncc34)cc21 (stereo not drawn) [Example A135] ) 1 to 9.9 nM

Fill in the blank: the reported DC50 of Cc1cc(-c2ccc(Nc3cc4c(c(C(C)C)n3)n(C)c(=O)n4C)cn2)cnc1C(=O)NCC#Cc1ccc2occ(C3CCC(=O)NC3=O)c2c1 (stereo not drawn) [Example A56] is ____. > 1000 nM

// query DC50 value for entry CC(C)c1cc(-c2cn(C)c(=O)c3cc(-c4ccc(C(=O)NCC#Cc5ccc6occ(C7CCC(=O)NC7=O)c6c5)nc4)ncc23)cc2c1n(C)c(=O)n2C (stereo not drawn) [Example A97] 1 to 9.9 nM

Need DC50, item CN1CCN(c2ccc3c(c2)n(C)c(=O)n3C)c2cc(C(F)(F)F)c(-c3ccc(C(=O)NCC#Cc4cc5c(C6CCC(=O)NC6=O)cccc5o4)nc3)cc21 (stereo not drawn) [Example A242] 1 to 9.9 nM

Which DC50 is listed for Cc1cc(N2CCOc3nc(-c4ccc(C(=O)NCC#Cc5cc6c(C7CCC(=O)NC7=O)nccc6o5)nc4)ncc32)cc2c1n(C)c(=O)n2C (stereo not drawn) [Example A160] ? < 1 nM

Request the reported DC50 associated with Cc1cc2c(N3CCCc4nc(-c5ccc(C(=O)NCC#Cc6cc7c([C@H]8CCC(=O)NC8=O)cccc7o6)nc5)ncc43)cc(C3CCOCC3)nc2n(C)c1=O [Example B48] < 1 nM

###

Listing of entries alongside the reported DC50.
target: CBP (Homo sapiens); construct: host or cells: A549 CBP HiBit cells; assay: CBP degradation, HiBit technology in A549 CBP HiBit cells (24 h); assay type: cell-based; settings: 24 hrs post treatment
Sequence (Q92793 whole entry): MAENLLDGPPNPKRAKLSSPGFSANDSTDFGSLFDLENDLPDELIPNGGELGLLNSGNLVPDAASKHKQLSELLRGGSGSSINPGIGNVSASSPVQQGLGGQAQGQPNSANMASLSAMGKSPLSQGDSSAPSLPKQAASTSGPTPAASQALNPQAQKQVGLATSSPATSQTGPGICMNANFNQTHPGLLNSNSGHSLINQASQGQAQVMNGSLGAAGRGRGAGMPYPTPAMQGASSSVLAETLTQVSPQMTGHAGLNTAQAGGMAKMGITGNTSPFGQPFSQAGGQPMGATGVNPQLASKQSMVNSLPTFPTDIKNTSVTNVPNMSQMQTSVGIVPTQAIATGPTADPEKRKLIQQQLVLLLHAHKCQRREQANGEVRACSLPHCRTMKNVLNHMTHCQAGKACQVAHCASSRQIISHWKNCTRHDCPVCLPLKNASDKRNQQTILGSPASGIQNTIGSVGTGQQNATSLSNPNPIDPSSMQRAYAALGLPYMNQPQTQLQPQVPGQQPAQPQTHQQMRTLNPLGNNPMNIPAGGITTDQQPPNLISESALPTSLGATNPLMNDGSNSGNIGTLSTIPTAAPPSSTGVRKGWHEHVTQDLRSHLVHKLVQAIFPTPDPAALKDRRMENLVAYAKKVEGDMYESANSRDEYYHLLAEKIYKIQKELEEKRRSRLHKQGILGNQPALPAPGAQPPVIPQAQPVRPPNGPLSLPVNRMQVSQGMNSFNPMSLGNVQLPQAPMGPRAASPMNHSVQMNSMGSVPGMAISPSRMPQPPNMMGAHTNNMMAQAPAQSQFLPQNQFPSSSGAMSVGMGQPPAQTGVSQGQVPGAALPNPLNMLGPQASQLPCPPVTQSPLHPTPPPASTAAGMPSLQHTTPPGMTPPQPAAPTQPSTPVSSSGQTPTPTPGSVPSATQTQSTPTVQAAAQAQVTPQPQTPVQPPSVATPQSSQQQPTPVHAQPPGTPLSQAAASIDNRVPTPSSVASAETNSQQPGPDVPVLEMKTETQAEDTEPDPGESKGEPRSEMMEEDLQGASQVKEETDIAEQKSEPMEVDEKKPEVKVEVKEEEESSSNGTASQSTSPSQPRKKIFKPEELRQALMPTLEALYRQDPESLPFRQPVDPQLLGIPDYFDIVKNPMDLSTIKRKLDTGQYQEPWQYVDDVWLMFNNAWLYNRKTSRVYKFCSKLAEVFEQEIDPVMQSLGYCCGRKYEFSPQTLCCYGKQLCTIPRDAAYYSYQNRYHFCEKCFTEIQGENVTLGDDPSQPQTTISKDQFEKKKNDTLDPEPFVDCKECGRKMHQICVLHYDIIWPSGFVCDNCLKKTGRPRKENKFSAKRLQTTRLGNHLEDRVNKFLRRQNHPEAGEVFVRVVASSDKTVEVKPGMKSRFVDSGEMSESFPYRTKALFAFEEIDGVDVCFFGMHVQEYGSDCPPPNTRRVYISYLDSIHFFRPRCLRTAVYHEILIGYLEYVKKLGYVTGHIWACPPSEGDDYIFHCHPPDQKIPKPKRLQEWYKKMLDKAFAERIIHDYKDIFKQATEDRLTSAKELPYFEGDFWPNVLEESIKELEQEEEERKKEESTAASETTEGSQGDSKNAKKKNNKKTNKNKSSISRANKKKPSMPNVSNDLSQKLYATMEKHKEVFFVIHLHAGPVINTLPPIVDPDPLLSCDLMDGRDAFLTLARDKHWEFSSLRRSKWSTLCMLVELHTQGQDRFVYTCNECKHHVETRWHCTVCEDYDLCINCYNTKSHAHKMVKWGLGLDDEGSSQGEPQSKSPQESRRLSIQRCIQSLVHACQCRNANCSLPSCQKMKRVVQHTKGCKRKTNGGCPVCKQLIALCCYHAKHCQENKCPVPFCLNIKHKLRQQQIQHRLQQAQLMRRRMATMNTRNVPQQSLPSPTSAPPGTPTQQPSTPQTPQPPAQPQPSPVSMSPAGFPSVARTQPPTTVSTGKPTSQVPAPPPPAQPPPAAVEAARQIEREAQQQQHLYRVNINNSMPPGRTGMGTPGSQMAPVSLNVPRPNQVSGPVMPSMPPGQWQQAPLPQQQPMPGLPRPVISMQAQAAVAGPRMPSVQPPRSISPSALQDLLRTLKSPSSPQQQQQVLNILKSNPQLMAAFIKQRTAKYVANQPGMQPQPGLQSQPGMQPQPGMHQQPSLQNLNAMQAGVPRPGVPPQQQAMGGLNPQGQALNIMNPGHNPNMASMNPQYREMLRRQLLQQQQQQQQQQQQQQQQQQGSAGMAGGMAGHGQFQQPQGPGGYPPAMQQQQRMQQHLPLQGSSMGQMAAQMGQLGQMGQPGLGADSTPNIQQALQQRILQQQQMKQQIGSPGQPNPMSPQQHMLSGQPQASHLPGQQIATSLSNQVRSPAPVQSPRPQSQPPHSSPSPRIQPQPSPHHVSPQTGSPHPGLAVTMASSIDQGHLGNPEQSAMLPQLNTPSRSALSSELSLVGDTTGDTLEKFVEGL

Reference set (2 entries):
# Compound, Target Or System, DC50
data = [
    ("[2H]C([2H])(C#Cc1ccc2occ(C3CCC(=O)NC3=O)c2c1)NC(=O)c1ccc(-c2ncc3c(n2)CCCN3c2cc(C3CCOCC3)cc3c2cc(C)c(=O)n3C)cn1 (stereo not drawn) [Example B117]", "CBP (Homo sapiens)", "100 to 999 nM"),
    ("Cc1cc(-c2cc3cccc(-c4ccc5c(c4)n(C)c(=O)n5C)c3cn2)cnc1C(=O)NCC#Cc1cc2c([C@H]3CCC(=O)NC3=O)cccc2o1 [Example A181]", "CBP (Homo sapiens)", "100 to 999 nM"),
]

For the next question, use this compound.
Need DC50, item Cc1cc2c(N3CCOc4cc(-c5ccc(C(=O)NCC#Cc6ccc7occ(C8CCC(=O)NC8=O)c7c6)nc5)ncc43)cccc2n(C)c1=O (stereo not drawn) [Example B77] > 1000 nM

###

molecular target: p300 (Homo sapiens); construct: host or cells: A549 P300 HiBit cells; assay: P300 degradation, HiBit technology in A549 P300 HiBit cells (2 h); assay type: cell-based; settings: A549 P300 HiBit cells, 2 hrs post treatment
// reported DC50 for each item listed

Solved entries:
# Molecule, Result
data = [
    ("Cc1cc2c(N3CCCc4nc(-c5ccc(C(=O)NCC#Cc6ccc7occ(C8CCC(=O)NC8=O)c7c6)nc5)ncc43)nc(C3CCOCC3)cc2n(C)c1=O (centres unmarked) [Example B70]", "1 to 9.9 nM"),
    ("CCc1cc(N(C)c2ccc(-c3cnc(C(=O)NCC#Cc4cccc(NC5CCC(=O)NC5=O)c4)c(C)c3)c(C(F)(F)F)c2)c2cc(C)c(=O)n(C)c2c1 (centres unmarked) [Example B14]", "10 to 99 nM"),
    ("Cc1cc2c(N3CCCc4nc(-c5ccc(C(=O)NCC#Cc6cc7c(C8CCC(=O)NC8=O)nccc7s6)nc5)ncc43)cc(C3CCOCC3)cc2n(C)c1=O (centres unmarked) [Example B81]", "1 to 9.9 nM"),
    ("Cc1cc2c(N3CCCc4nc(-c5ccc6c(c5)C(=O)N(CC#Cc5ccc7occ(C8CCC(=O)NC8=O)c7c5)C6)ncc43)cc(C3CCOCC3)cc2n(C)c1=O (centres unmarked) [Example B44]", "1 to 9.9 nM"),
]

Can you look up the measured DC50 of CC(C)c1cc(N(C)c2cnc(-c3ccc(C(=O)NCC#Cc4ccc5cnn(C6CCC(=O)NC6=O)c5c4)nc3)nc2)cc2c1n(C)c(=O)n2C (centres unmarked) [Example A211] for me? 1 to 9.9 nM

Fill in the blank: the reported DC50 of Cc1cc2c(N3CCN(C)c4nc(-c5ccc(C(=O)NCC#Cc6cc7c(C8CCC(=O)NC8=O)nccc7o6)nc5)ncc43)cccc2n(C)c1=O (centres unmarked) [Example B32] is ____. < 1 nM

Field request: DC50 | item: CCc1cc(N2CCCc3nc(-c4ccc(C(=O)NCC#Cc5ccc6occ(C7CCC(=O)NC7=O)c6c5)nc4)ncc32)c2cc(C)c(=O)n(C)c2c1 (centres unmarked) [Example B43] 1 to 9.9 nM

Record request: DC50 value, item Cc1cc2c(N3CCOc4cc(-c5ccc(C(=O)NCC#Cc6ccc7occ(C8CCC(=O)NC8=O)c7c6)nc5)c(F)cc43)cc(C(C)C)cc2n(C)c1=O (centres unmarked) [Example B91] 10 to 99 nM

Entry under review: Cn1c(=O)n(C)c2c(N3CCOCC3)nc(-c3cccc4cc(-c5ccc(C(=O)NCC#Cc6cc7c(C8CCC(=O)NC8=O)cccc7o6)nc5)ncc34)cc21 (centres unmarked) [Example A223] . Reported DC50? < 1 nM

Fill blank: measured DC50 of the molecule CC(C)c1cc(-c2cccc3cc(-c4ccc(C(=O)NCC#Cc5cc6c(c(NC7CCC(=O)NC7=O)c5)OCC6)nc4)ncc23)cc2c1n(C)c(=O)n2C (centres unmarked) [Example A32] is ____. 1 to 9.9 nM

DC50 lookup needed for Cc1cc2c(N3CCCc4nc(-c5ccc(C(=O)NCC#Cc6cc7c(C8CCC(=O)NC8=O)cccc7o6)nc5)ncc43)cc(C3COC3)nc2n(C)c1=O (centres unmarked) [Example B163] , thanks. < 1 nM

###

molecular target: p300 (Homo sapiens, UniProt Q09472); construct: host or cells: A549 P300 HiBit cells; assay: P300 degradation, HiBit technology in A549 P300 HiBit cells (2 h); assay type: cell-based; conditions: A549, A549 P300 HiBit cells, 2 hrs post treatment
Sequence (Q09472 whole entry): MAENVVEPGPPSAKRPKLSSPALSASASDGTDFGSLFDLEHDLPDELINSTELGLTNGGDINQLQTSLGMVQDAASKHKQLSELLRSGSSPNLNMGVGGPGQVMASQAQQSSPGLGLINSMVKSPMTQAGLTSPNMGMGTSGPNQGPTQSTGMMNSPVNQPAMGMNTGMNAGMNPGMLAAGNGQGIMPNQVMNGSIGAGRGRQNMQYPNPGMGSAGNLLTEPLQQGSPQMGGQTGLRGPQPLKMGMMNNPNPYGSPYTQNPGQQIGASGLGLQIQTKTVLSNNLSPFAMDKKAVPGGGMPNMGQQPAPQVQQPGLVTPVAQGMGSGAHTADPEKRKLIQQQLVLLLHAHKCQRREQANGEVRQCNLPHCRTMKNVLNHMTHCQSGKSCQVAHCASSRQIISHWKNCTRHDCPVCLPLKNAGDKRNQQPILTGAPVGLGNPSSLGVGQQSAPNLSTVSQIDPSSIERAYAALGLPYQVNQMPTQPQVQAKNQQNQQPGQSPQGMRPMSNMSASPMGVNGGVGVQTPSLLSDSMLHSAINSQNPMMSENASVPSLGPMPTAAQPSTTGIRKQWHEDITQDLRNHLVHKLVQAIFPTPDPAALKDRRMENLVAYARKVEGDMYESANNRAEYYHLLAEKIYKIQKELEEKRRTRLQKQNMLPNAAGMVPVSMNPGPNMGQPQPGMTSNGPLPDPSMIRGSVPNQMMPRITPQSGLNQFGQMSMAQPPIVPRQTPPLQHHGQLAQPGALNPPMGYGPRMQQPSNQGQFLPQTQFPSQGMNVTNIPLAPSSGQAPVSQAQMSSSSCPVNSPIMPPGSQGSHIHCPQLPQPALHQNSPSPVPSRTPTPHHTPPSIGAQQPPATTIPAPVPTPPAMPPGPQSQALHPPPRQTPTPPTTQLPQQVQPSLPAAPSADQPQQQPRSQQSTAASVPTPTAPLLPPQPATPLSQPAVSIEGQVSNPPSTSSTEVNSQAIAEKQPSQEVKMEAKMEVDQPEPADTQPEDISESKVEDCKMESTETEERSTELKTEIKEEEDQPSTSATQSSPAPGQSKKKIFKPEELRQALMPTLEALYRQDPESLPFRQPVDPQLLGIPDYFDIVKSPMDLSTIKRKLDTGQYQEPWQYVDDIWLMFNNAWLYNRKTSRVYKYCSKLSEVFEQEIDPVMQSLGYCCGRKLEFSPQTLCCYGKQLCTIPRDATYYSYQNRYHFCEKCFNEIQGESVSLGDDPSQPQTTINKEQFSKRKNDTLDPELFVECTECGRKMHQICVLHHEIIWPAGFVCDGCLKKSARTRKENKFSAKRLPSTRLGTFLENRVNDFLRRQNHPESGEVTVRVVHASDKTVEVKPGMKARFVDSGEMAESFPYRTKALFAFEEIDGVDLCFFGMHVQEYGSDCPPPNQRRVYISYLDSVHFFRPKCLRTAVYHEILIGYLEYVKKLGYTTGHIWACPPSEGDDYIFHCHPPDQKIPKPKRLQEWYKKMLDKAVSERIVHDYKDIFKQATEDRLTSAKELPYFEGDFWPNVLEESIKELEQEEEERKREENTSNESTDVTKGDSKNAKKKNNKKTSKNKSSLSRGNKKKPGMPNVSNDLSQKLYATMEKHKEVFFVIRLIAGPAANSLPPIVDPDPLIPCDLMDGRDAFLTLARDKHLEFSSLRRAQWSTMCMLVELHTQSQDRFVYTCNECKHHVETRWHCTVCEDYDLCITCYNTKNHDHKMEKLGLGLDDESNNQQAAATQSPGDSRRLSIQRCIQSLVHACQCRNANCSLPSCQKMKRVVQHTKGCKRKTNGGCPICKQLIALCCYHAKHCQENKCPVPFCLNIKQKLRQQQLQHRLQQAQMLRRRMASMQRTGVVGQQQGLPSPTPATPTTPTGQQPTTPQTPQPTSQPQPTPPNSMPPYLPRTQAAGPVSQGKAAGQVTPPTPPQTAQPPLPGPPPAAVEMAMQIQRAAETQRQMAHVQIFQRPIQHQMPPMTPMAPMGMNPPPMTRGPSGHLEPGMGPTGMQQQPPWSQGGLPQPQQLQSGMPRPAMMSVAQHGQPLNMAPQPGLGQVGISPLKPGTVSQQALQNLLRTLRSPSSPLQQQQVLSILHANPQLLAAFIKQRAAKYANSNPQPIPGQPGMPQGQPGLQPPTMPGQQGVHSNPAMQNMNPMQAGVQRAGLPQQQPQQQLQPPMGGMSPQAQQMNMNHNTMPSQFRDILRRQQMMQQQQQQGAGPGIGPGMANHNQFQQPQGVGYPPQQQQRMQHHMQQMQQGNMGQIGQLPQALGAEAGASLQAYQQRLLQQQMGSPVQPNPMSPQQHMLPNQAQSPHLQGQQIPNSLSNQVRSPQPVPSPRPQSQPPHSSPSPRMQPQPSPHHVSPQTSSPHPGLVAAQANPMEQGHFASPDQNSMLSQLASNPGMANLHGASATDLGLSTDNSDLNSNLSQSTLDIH
Test Readout: Dmax

# Compound, Result
data = [
    ("CC(C)c1nc(N2CCCc3nc(-c4ccc(C(=O)NCC#Cc5ccc6occ(C7CCC(=O)NC7=O)c6c5)nc4)ncc32)cc2c1n(C)c(=O)n2C (stereo not drawn) [Example A76]", "< 20%"),
    ("Cc1cc2c(N3CCCc4nc(-c5ccc(C(=O)NCC#Cc6ccc7occ(C89CC(C8)C(=O)NC9=O)c7c6)nc5)ncc43)cc(C3CCOCC3)cc2n(C)c1=O [Example B107]", "60 to 79%"),
    ("CC(C)c1cc(-c2cccc3cc(-c4ccc(C(=O)NCC#Cc5ccn6ncc(C7CCC(=O)NC7=O)c6c5)nc4)ncc23)cc2c1n(C)c(=O)n2C (stereo not drawn) [Example A172]", "> 80%"),
    ("CCc1cc(N(C)c2ccc(-c3cnc(C(=O)NCC#Cc4cccc(NC5CCC(=O)NC5=O)c4)c(C)c3)c(F)c2)c2cc(C)c(=O)n(C)c2c1 (stereo not drawn) [Example B19]", "> 80%"),
    ("Cc1cc2c(N3CCCc4nc(-c5ccc(C(=O)NCC#Cc6cc7c(C8CCC(=O)NC8=O)c(F)ccc7o6)nc5)ncc43)cc(C3CCOCC3)cc2n(C)c1=O (stereo not drawn) [Example B90]", "> 80%"),
]

Next compound, please.
May I ask what Dmax has been recorded for Cc1cc(-c2ncc3c(n2)OCCN3c2cc(C)c3c(c2)n(C)c(=O)n3C)cnc1C(=O)NCC#Cc1cc2c(C3CCC(=O)NC3=O)cccc2o1 (stereo not drawn) [Example A241] ? > 80%
